# testMethodNotes: resazurin metabolic signal in A549 cells – cell-based, resazurin fluorescence, 24 h, PK04 Diversity Set, profiling panel (AID 1171); further: test concentration not given here
# assaySetup: A549 viability, higher = more signal, called active from +8 up or from −8 down
Listed below: z-score values for each entry.
// no unit string in output, number only

Below: 2 compounds and their reported z-score.
{"compound": "O=C1C2C=CC(C(O)c3cccc4ccccc34)N(n3cnnc3)C2C(=O)N1Cc1ccccc1 (centres undefined)", "valueMeasured": -0.522}
{"compound": "CN1C(=O)C2C=CC(C(O)c3ccccc3)N(NC(=O)OC(C)(C)C)C2C1=O (centres undefined)", "valueMeasured": -0.449}

Note z-score for the compound shown: Cc1ccc(N2C(=O)c3ccccc3[C@@H](C(=O)NCC(C)C)[C@@H]2c2ccc(CO)cc2)nc1
-0.613

Supply reported z-score belonging to this compound: CCN(CC)c1ccc(N2CC=CC34O[C@@H]5/C=C\CCC(C)OC(=O)C5[C@H]3C(=O)N(CCCCCCO)[C@@H]4C2=O)cc1 (some centres undefined)
0.606

The reported measurements were obtained from PubChem BioAssay.
